Read-out: growth arrest and DNA damage 45 (GADD45A), GADD45A (gene 1647)
test.description: LTEA_HepaRG_GADD45A: Life Technologies and Expression Analysis (LTEA) Assay for growth arrest and DNA damage 45 (GADD45A) using HepaRG (AID 2283458)
details: mRNA level, 48 h; actives raise or lower the signal
Active and inactive are the calls of the source. Rule for the calls: active = hit-call score of the fitted dose curve at least 0.9, where 1 is the maximum; inactive = score below 0.9.
In this exercise, the only acceptable responses are active, inactive

Query: Hi, sorry to bother you, what did the test record for Cc1c(COC(=O)[C@@H]2[C@H](/C=C(\Cl)C(F)(F)F)C2(C)C)cccc1-c1ccccc1 ?
Reply: inactive

Query: Same lookup for CO/N=C(/C1=NOCCO1)c1ccccc1Oc1ncnc(Oc2ccccc2Cl)c1F , please.
Reply: active

Query: Same question for COP(=O)(OC)O/C(C)=C/C(=O)N(C)C please.
Reply: inactive

Query: For CC1(C)CCC(=Cc2ccc(Cl)cc2)C1(O)Cn1cncn1 (stereo not drawn) then?
Reply: inactive

Query: Repeat for the following compound: CCOc1nc(C(Cl)(Cl)Cl)ns1
Reply: active

Query: For CCSC(=O)N1CCCCCC1 then?
Reply: inactive

Query: Similarly, COc1cc(OC)nc(NC(=O)NS(=O)(=O)c2ncccc2OCC(F)(F)F)n1 ?
Reply: active

Query: Entry to check: COP(=S)(OC)SCn1nnc2ccccc2c1=O
Reply: inactive
